Tested on: MS2 coat protein
assayText: apparent KD of MS2 coat protein; designed switch direction (-1 OFF switch, 1 ON switch): -1; higher = weaker reporter binding
details: input ligand: none
Grouping key: apparent KD of MS2 coat protein. Bins: one: < 30 nM; two: ≥ 30 nM and < 60 nM; three: ≥ 60 nM

Consider the worked cases shown below.
{"residueSequence": "AAUUAGUGAGGAUAUACUAACAGUGGUAGUAGAUAGUGGAUGUAGAAGGCACAUGAGGAUCACCCAUGUUAUAA [EX4 #52] (Eterna round: R97, puzzle: Exclusion 4)", "assignedClass": "two"}
{"residueSequence": "AACUAACAUGUAGGAUAUGCGUGGCGAAGCUAUGCAGAAGGACAUGAGGAUCACCCAUGUUUUAGCGUCUGCGUACAGAUGCAU [JL ENG1 1.41] (Eterna round: R96, puzzle: Exclusion NG 1)", "assignedClass": "one"}
{"residueSequence": "UGACAGGAGUAGGAUAUGCCCACCGUCCGACUGGCAGAAGGACUCACAUGAGGAUCACCCAUGUAGUUAUGUAC [Eternabot (L2) Solution 96] (Eterna round: R97, puzzle: Exclusion 6)", "assignedClass": "one"}
{"residueSequence": "UUUGUUUGCACAGGAUAUUGUUAUUUUAUUUUUCAAGAAGGGUGUACAUGAGGAUCACCCAUGUUAAGGUUUAAUCUUUCACUU [JR_ExcNG1_Sub010] (Eterna round: R96, puzzle: Exclusion NG 1)", "assignedClass": "three"}
{"residueSequence": "UGUUGUUACGUAGGAUAUCCACCAACAGGUGGAAGGAUAUGUACGCAGAAGGUUCGCCAACAGGCGGAGAAGGACGUGUUAACA [pwkr exNG2 2xF7 2xFMN.28] (Eterna round: R96, puzzle: Exclusion NG 2)", "assignedClass": "three"}
{"residueSequence": "CGGAUGUUAGGAUAUUAGUAGUAGUCAGAAAAGACUAUUACUGAGAAGGAACAUGAGGAUCACCCAUGUAUCCG [Mat - Exclusion 4 - Eli Mod - D45] (Eterna round: R97, puzzle: Exclusion 4)", "assignedClass": "one"}
{"residueSequence": "CGAUGACGAGUGAGGAUAUCGUGUUCGAAAGAACGUGAGAAGGCACAUGAGGAUCACCCAUGUGAUCCUCAUCG [Omei Ex4B A26] (Eterna round: R97, puzzle: Brourd's mod of Exclusion 4)", "assignedClass": "two"}
{"residueSequence": "GUCUUGUCAGGAUAUCUUACAUAACAAUCGUAGUUACAAUUGGAGAAGGGACAUGAGGAUCACCCAUGUUAGCA [tap-tap-tappy36] (Eterna round: R97, puzzle: Exclusion 4)", "assignedClass": "one"}

input: Hi there! Could you help me figure out the category for UUUUGCUCAGGAUAUACAUGAGGAUCACCCAUGUAUAUUGAAGGUAAUACAUGGGAAUGUAGAAGGGAGCUCAU [Omei Ex3 Pseudoloop 21] (Eterna round: R97, puzzle: Exclusion 3) please?
output: three

input: Same question, ACACUGCGAGGAUAUACAUGAGGAUCACCCAUGUUUCGGUAGUCAAGGUUAAUUUAAGGUAGAAGGCGCGUAUU [JR_Ex3_Sub010] (Eterna round: R97, puzzle: Exclusion 3) this time
output: two
